A collection of binders and their measured pKd
Molecular target: T1, mouse folate receptor alpha (mFRα), recombinant protein (mouse, UniProt P35846 25-232)
T1 construct: Bought recombinant proteins (e.g. biotinylated, Acro Biosystems FO1-M82E9); also called mFOLR1; Ms FOLR1
T1 sequence (P35846 25-232 limits assumed): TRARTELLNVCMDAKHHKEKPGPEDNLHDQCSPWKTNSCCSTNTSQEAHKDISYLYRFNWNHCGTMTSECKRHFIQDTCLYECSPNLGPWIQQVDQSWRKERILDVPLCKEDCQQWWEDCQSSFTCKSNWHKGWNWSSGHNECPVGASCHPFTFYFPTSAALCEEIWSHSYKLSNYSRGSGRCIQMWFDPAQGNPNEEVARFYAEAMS
Assay: BLI, FRα on AR2G biosensors, 1:1 model
Give only the number. pKd is defined as minus log10 of concentration in molar units.

Below, each entry is followed by its recorded pKd result.
[
  {
    "BINDER": "VHH 2HFO42 (family 3) (VHH, also called 2HF042; Nb42) VHH: QVQLQESGGGLVQAGGSLRLSCAASGSGFSGMIMGWYRQVPGKQRELVATVTSHGTTNYADSVKGRFTISRDNAKNTVLLQMNSLKPEDTAVYYCNAHFPGIYWGKGTQVTVSS",
    "MEASURED VALUE": 7.62
  },
  {
    "BINDER": "VHH 3HFO28 (family 7) (VHH) VHH: QVQLQESGGGLVQPGGSLRLSCAASGSTLDRYEIGWFRQAPGKGRERVSCISTTSSTYEDSVKGRFTISRDNAKNTVYLQMNSLKPEDTAVYYCATVRVAWSTCFPTGDSWGKGTQVTVSS",
    "MEASURED VALUE": 7.90
  },
  {
    "BINDER": "VHH 2MFR7 (family 1) (VHH, also called 2MFRO7) VHH: QVQLQESGGGLVQPGGSLRLSCAASGFPFSTYYMSWVRQAPGKGLEWVSGINSNGGVIDYADSVKGRFTISRDNAKNTLYLQLNSLKPEDTALYFCARGRAFVATMPSSLRGQGTQVTVSS",
    "MEASURED VALUE": 7.78
  },
  {
    "BINDER": "VHH 3HFO26 (family 1) (VHH) VHH: QVQLQESGGGLVQPGGSLRITCVASGFPFSTYYMSWVRQAPGKGLEWVSGINSNGGVIDYADSVKGRFTISRDNAKNTLYLQLNSLKPEDTALYFCARGRAFVATMPSSLRGQGTQVTVSS",
    "MEASURED VALUE": 8.10
  },
  {
    "BINDER": "VHH 3MFR60 (family 10) (VHH) VHH: QVQLQESGGGLVQAGGSLRVSCAASGIIFSMNGMGWFRQAPGKQRELVASITSGGSTKYADSVKGRFTISRDNAKNTVYLQMNSLKPEDTAVYYCNIQFGSRWSTYWGQGTQVTVSS",
    "MEASURED VALUE": 8.59
  }
]

Read the entry VHH 2HFO19 (family 1) (VHH, also called Nb19) VHH: QVQLQESGGGLVQPGGSLRVSCAASGFPFSTVYMSWVRQAPGKGLEWVSGINNDGGVIDYADSVKGRFTISRDNAKNTLYLQLNSLKPEDTALYFCARGRSFVATLSSSLRGQGTQVTVSS and write its reported pKd.
8.53
